- Protocol summary: Apparent permeability from apical to basal side of dog RRCK cells
- Type: ADME, cell-based, Canis lupus familiaris, MDCKII-LE
- Recorded conditions: MDCK
For each entry below, report its Papp A→B value.
One number for each entry, in ×10⁻⁶ cm/s.

# Compound structure string, Papp A→B, ×10⁻⁶ cm/s
records = [
    ("N#CC12CC(CN([C@H](CCC(F)(F)F)C(N)=O)S(=O)(=O)c3ccc(Cl)cc3)(C1)C2", 30.2),
]

Batch: Papp A→B for all items listed.
1. NC(=O)[C@@H](CCC(F)(F)F)N(Cc1ccc(-c2ncon2)cc1F)S(=O)(=O)c1ccc(Cl)cc1
2. N#C[C@H]1C[C@H](CN([C@H](CCC(F)(F)F)C(N)=O)S(=O)(=O)c2ccc(Cl)cc2)C1
3. N#CCCCN([C@H](CCC(F)(F)F)C(N)=O)S(=O)(=O)c1ccc(Cl)cc1
4. N#C[C@H]1C[C@@H]1CN([C@H](CCC(F)(F)F)C(N)=O)S(=O)(=O)c1ccc(Cl)cc1
5. N#Cc1ccc(CN([C@H](CCC(F)(F)F)C(N)=O)S(=O)(=O)c2ccc(Cl)cc2)cc1

Found:
1. 5.52
2. 24.9
3. 27.6
4. 21.5
5. 19.7
